Reference source: ChEMBL document CHEMBL1201862

Could you please report measured GI50 for the items listed next?
- System: HCC 2998
- Assay details: NCI tumour cell line growth inhibition, 48 h
Calls of active or inactive are those of the source. Cut-off read from the data, not from the text of the source: active = GI50 up to about 1.1 µM and inactive = higher.

Qu. API: value(readout=GI50, system=HCC 2998) for record COC(=O)c1nc2n(n1)-c1ccccc1C(=O)N(Cc1ccccc1)C2
Ans. 40.4 µM (inactive)

Qu. Then CN(C)CCNC(=O)c1cccc2c(NC(CS)C(=O)O)c3ccccc3[n+](C)c12 (configuration not stated) ?
Ans. 50 µM (inactive)

Qu. Then C[N+](C)(C)/N=C\c1ccc(O)c(O)c1 ?
Ans. > 100 µM (inactive)

Qu. Then Cc1cc(Cl)ccc1NC(=O)/C(=N\NC(C)(C)C)C(C#N)c1nc(-c2ccc([N+](=O)[O-])cc2)cs1 (configuration not stated) ?
Ans. > 100 µM (inactive)

Qu. Then COC(=O)C1(Cc2ccc(C)cc2)Cc2c(C)cccc2C1=O (configuration not stated) ?
Ans. 16.8 µM (inactive)

Qu. Then N#CC(=S)Nc1cccc(Cl)c1 ?
Ans. 28.8 µM (inactive)

Qu. Then O=c1cccc2n1CC1CNC[C@H]2C1 ?
Ans. > 100 µM (inactive)

Qu. Then NC(=O)OCC(COc1ccc(Cl)cc1)OC(=O)c1ccccc1Cl (configuration not stated) ?
Ans. 23.8 µM (inactive)

Qu. Then CCN(CCO)CC1CCCC2CCCCC21 (configuration not stated) ?
Ans. > 100 µM (inactive)

Qu. Then COc1ccc2oc(C(=O)O)c3c2c1CCC3 ?
Ans. > 100 µM (inactive)

Qu. Then CC1CCc2sc3nc4n(c(=O)c3c2C1)CC(C)S4 (configuration not stated) ?
Ans. 19.7 µM (inactive)

Qu. Then CC1(O)C2(c3ccccc3)CCC[N+]1(C)CC2 (configuration not stated) ?
Ans. > 100 µM (inactive)
